src = the supplement of paper PMC10307832

Tested on: LK-2
EXPERIMENTAL PROTOCOL: relative viability (nuclei count vs DMSO), 5 days (fraction); higher = more cells survive
ASSAY SETUP: first compound 0.5 µM
relative viability values by entry

COMPOUND: Nc1ccn([C@@H]2O[C@H](CO)[C@@H](O)[C@@H]2O)c(=O)n1 [Cytarabine] + C[C@@H](Oc1cc(-c2cnn(C3CCNCC3)c2)cnc1N)c1c(Cl)ccc(F)c1Cl [Crizotinib] (partner 1 µM)
relative viability: 0.205
//
COMPOUND: COc1cc2nccc(Oc3ccc(NC(=O)Nc4cc(C)on4)c(Cl)c3)c2cc1OC [Tivozanib] + N=C(N)NC(=N)NCCc1ccccc1 [Phenformin] (partner 250 µM)
relative viability: 0.199
//
COMPOUND: Nc1ccn([C@@H]2O[C@H](CO)[C@@H](O)[C@@H]2O)c(=O)n1 [Cytarabine] + N=C(N)NC(=N)NCCc1ccccc1 [Phenformin] (partner 250 µM)
relative viability: 0.196
